biological target: Rat α6/3β2β3 (Rattus norvegicus, UniProt P04757+P12390+P12391+P43143); construct: evaluation of the effects of the α6 extracellular domain; remainder of rat α3 subunit (transmembrane and intracellular part); expressed in transfected cells; host or cells: Xenopus laevis oocytes injected with subunit cRNAs; α6/3 clone from Michael McIntosh (University of Utah), corrected in house by QuickChange; test: Voltage clamp of Xenopus oocytes expressing α6/3 chimera with β2 and β3; format: cell-based; details: decrease in net charge, 100 μM ACh co-applied with TMPH; read-out: IC50 (area)
Sequence (P43143+P04757 fused with the stated changes): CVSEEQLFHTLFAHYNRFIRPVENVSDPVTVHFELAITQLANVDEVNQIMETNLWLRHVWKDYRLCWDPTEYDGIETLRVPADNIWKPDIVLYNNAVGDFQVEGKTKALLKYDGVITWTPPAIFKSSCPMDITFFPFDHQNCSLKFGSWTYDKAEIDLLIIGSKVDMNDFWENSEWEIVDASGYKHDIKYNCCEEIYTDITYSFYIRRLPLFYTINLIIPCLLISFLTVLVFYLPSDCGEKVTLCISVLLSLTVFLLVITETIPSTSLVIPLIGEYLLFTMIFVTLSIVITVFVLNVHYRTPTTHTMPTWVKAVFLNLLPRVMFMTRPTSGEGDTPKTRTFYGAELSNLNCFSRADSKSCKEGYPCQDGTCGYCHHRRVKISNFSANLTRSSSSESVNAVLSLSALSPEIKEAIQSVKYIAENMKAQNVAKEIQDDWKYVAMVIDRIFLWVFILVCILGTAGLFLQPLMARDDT
Sequence (P12390 25-500): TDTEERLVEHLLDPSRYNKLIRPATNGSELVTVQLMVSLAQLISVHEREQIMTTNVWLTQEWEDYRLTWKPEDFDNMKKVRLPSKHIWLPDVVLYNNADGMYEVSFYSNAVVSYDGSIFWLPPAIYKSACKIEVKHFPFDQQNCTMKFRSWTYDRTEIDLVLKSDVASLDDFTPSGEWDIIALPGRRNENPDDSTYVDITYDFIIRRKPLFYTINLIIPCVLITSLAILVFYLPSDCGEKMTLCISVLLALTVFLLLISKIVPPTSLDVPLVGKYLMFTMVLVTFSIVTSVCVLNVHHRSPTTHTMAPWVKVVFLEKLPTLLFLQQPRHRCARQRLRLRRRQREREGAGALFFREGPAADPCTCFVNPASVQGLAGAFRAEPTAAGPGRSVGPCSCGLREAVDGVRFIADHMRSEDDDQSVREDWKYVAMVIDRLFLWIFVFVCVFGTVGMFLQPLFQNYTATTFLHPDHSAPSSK
Sequence (P12391 31-464): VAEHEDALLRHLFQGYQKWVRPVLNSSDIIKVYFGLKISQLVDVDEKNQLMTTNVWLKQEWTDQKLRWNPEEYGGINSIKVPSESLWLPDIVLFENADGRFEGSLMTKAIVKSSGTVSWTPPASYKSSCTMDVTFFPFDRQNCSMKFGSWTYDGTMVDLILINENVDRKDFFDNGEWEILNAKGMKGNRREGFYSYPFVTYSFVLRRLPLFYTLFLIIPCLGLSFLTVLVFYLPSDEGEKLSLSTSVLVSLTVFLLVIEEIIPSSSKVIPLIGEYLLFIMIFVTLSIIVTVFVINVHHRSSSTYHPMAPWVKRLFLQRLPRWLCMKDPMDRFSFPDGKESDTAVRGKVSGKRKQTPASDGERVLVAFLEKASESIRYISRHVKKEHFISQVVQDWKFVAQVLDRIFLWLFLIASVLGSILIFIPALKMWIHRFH
quantityMeasured: pIC50
As a rule, pIC50 stands for the negative log10 of the concentration, concentration in M.

Noted for CCCCCCC(=O)OC1CC(C)(C)NC(C)(C)C1 [TMPH] : its pIC50 reads 6.00
